biological target: human FOXP3 tagged with 6 histidines at the C terminus (human) (UniProt Q9BZS1); experiment: SPR (ProteOn XPR36), FOXP3-6His immobilized on GLM chip, peptide 1-20 µM injected; ratio to p60 (SEQ ID NO: 1)
Sequence (Q9BZS1 other isoform, or with tags, fused parts or gaps): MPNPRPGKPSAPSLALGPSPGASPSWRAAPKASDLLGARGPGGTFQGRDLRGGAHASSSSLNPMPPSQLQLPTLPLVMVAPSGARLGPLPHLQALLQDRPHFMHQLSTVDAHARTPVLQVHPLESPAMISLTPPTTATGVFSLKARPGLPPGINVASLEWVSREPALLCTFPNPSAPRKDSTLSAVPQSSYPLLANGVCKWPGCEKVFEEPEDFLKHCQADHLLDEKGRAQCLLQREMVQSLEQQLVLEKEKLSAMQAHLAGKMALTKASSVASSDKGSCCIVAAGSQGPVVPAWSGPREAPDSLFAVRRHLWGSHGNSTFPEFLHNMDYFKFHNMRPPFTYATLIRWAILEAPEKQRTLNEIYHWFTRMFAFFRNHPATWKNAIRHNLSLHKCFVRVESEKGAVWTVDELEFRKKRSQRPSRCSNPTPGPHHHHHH
Where no end group is shown, it is not given here. [ ]: non-standard residue; d: D form.
The following binders are shown together with reported log10(Ratio binding Peptide/p60 (fold change)) values.
EXPERIMENTAL READOUT: log10(Ratio binding Peptide/p60 (fold change)) (log10 of the value in fold change)

{"BINDER": "RDFQSFRKMWNFFAM [peptide of SEQ ID NO: 32]", "RECORDED VALUE": 0.15}
{"BINDER": "RDFQSFRKMWPFFAM [p60 (peptide of SEQ ID NO: 1)]", "RECORDED VALUE": 0.00}
{"BINDER": "Ac-GR[dA]FQSFRKMWPFFAM-NH2 (SMILES CSCC[C@H](NC(=O)[C@H](C)NC(=O)[C@H](Cc1ccccc1)NC(=O)[C@H](Cc1ccccc1)NC(=O)[C@@H]1CCCN1C(=O)[C@H](Cc1c[nH]c2ccccc12)NC(=O)[C@H](CCSC)NC(=O)[C@H](CCCCN)NC(=O)[C@H](CCCNC(=N)N)NC(=O)[C@H](Cc1ccccc1)NC(=O)[C@H](CO)NC(=O)[C@H](CCC(N)=O)NC(=O)[C@H](Cc1ccccc1)NC(=O)[C@@H](C)NC(=O)[C@H](CCCNC(=N)N)NC(=O)CNC(C)=O)C(N)=O) [peptide of SEQ ID NO: 14]", "RECORDED VALUE": 0.56}
{"BINDER": "RDFQWFRKMWPFFAM [peptide of SEQ ID NO: 22]", "RECORDED VALUE": 0.38}
{"BINDER": "RNFQSFRKMWPFFAM [peptide of SEQ ID NO: 11]", "RECORDED VALUE": 0.15}
{"BINDER": "RYFQSFRKMWPFFAM [peptide of SEQ ID NO: 8]", "RECORDED VALUE": 0.15}
{"BINDER": "RDFQSFRKMWRFFAM [peptide of SEQ ID NO: 31]", "RECORDED VALUE": 0.45}
{"BINDER": "Ac-GRAFQAFRKMWAFFAM-NH2 [peptide of SEQ ID NO: 45]", "RECORDED VALUE": 0.90}
{"BINDER": "RAFQAFRKMWPFFAM (head-to-tail cyclic: linker L is C(=O) between the N-terminal amino group of residue 1 and the alpha carbon of residue 15) [cyclic peptide SEQ ID NO: 50]", "RECORDED VALUE": 1.33}
{"BINDER": "RDFQYFRKMWPFFAM [peptide of SEQ ID NO: 24]", "RECORDED VALUE": 0.66}
{"BINDER": "RDFQAFRKMWPFFAM [peptide of SEQ ID NO: 19]", "RECORDED VALUE": 0.04}
{"BINDER": "RDFQSFRKMWKFFAM [peptide of SEQ ID NO: 37]", "RECORDED VALUE": 0.61}
{"BINDER": "RKFQSFRKMWPFFAM [peptide of SEQ ID NO: 12]", "RECORDED VALUE": 0.34}
{"BINDER": "RDAQSFRKMWPFFAM [peptide of SEQ ID NO: 15]", "RECORDED VALUE": 0.04}
{"BINDER": "H-RAFQAFRKMWPFFAM-OH [peptide of SEQ ID NO: 42]", "RECORDED VALUE": 0.61}
{"BINDER": "RDFQEFRKMWPFFAM [peptide of SEQ ID NO: 23]", "RECORDED VALUE": 0.11}
{"BINDER": "RDFQSFRHMWPFFAM [peptide of SEQ ID NO: 28]", "RECORDED VALUE": 0.41}
{"BINDER": "RDFQRFRKMWPFFAM [peptide of SEQ ID NO: 20]", "RECORDED VALUE": 0.57}
{"BINDER": "H-R[dA]FQSFRKMWPFFAM-OH [peptide of SEQ ID NO: 6]", "RECORDED VALUE": 0.52}
{"BINDER": "H-[dR]AFQSFRKMWPFFAM-OH (SMILES CSCC[C@H](NC(=O)[C@H](C)NC(=O)[C@H](Cc1ccccc1)NC(=O)[C@H](Cc1ccccc1)NC(=O)[C@@H]1CCCN1C(=O)[C@H](Cc1c[nH]c2ccccc12)NC(=O)[C@H](CCSC)NC(=O)[C@H](CCCCN)NC(=O)[C@H](CCCNC(=N)N)NC(=O)[C@H](Cc1ccccc1)NC(=O)[C@H](CO)NC(=O)[C@H](CCC(N)=O)NC(=O)[C@H](Cc1ccccc1)NC(=O)[C@H](C)NC(=O)[C@H](N)CCCNC(=N)N)C(=O)O) [peptide of SEQ ID NO: 46]", "RECORDED VALUE": 0.43}
{"BINDER": "[dR]AFQSFRKMWPFFA[dM] [peptide of SEQ ID NO: 48]", "RECORDED VALUE": 0.40}
{"BINDER": "RDFQNFRKMWPFFAM [peptide of SEQ ID NO: 21]", "RECORDED VALUE": 0.51}
{"BINDER": "RDFQSFRRMWPFFAM [peptide of SEQ ID NO: 29]", "RECORDED VALUE": 0.15}
{"BINDER": "RDLQSFRKMWPFFAM [peptide of SEQ ID NO: 18]", "RECORDED VALUE": 0.28}
